target: SMO (Mus musculus, UniProt P56726); construct: endogenous in cells; host or cells: C3H10T1/2 (ATCC #CCL-226); experiment: Smoothened (SMO)/Sonic Hedgehog (SHh) Transient Transcriptional Activation Assay (Gli-luciferase reporter in C3H10T1/2 cells); assay type: cell-based, murine; conditions: C3H 10T1/2, 2 μM test compound, SHh 250 ng/ml, 20 hrs, read-out: SMO CELL % INHIBITION @ 2 μM
Sequence (P56726 33-793): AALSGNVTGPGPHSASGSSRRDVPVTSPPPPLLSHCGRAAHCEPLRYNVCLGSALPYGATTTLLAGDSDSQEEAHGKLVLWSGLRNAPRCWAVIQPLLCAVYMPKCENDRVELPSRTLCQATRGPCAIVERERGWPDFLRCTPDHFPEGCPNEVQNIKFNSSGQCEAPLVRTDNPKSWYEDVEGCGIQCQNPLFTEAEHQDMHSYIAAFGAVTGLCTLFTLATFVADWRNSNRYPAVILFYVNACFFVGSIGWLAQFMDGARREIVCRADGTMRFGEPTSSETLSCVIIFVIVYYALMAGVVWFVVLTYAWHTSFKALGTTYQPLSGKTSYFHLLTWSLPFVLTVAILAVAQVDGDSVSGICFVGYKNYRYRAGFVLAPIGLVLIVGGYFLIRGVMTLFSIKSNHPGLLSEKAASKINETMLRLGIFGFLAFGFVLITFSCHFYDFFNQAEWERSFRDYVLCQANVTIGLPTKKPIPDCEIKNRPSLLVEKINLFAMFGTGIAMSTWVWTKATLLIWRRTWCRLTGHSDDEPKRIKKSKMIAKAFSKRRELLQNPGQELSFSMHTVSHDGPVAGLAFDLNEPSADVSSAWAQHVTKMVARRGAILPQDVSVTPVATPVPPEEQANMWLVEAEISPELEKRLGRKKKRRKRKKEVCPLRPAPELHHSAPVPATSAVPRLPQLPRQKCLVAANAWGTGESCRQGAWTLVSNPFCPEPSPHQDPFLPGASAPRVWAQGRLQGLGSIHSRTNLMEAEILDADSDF
Structures can show the parent of a compound that is named as a salt.
assay metric: inhibition at 2 µM (%)

A selection of reference data follows.
Ask | Give inhibition at 2 µM for the following compound: CN1C(=O)COc2ccc(C(=O)N[C@@H]3CCC[C@H](c4nc5cc(Cl)ccc5[nH]4)C3)cc21 [Example 301]
Reply | 108

Ask | Retrieve inhibition at 2 µM measured for Cc1nn(C)c2sc(C(=O)N[C@@H]3CCC[C@H](c4nc5ccccc5[nH]4)C3)cc12 [Example 204] and print it.
Reply | 103

Ask | Return reported inhibition at 2 µM. Input compound: O=C(N[C@@H]1CCC[C@H](c2nc3ccccc3[nH]2)C1)c1ccc2cc[nH]c2c1 [Example 203]
Reply | 109

(1) O=C(NC1CCCC(c2nc3ccccc3[nH]2)C1)c1cc(-c2ccncc2)n[nH]1 (stereo not shown) [Example 135]
(2) O=C(NC1CCCC(c2nc3ccccc3[nH]2)C1)C1CCCCC1 (stereo not shown) [Example 57, HCl]
Ask | 1 or 2 : whose inhibition at 2 µM is greater? Indicate which entry you chose by stating its label.
Reply | 1
(1: 100%, 2: 48%)

---

target: SMO (Mus musculus, UniProt P56726); construct: endogenous in cells; host or cells: C3H10T1/2 (ATCC #CCL-226); assay: Smoothened (SMO)/Sonic Hedgehog (SHh) Transient Transcriptional Activation Assay (Gli-luciferase reporter in C3H10T1/2 cells); assay type: cell-based, murine; settings: C3H 10T1/2, 2 μM test compound, SHh 250 ng/ml, 20 hrs, read-out: SMO CELL % INHIBITION @ 2 μM
Structures can show the parent of a compound that is named as a salt.
assay metric: inhibition at 2 µM (%)

Before answering, review these 5 worked examples.
Ask | Output measured inhibition at 2 µM for this item: O=C(NC1CCCC(c2nc3ccccc3[nH]2)C1)c1cc(C2CC2)n[nH]1 (stereo not shown)
Reply | 109

Ask | In one line, give reported inhibition at 2 µM of the entry O=C(N[C@@H]1CCC[C@H](c2nc3ccccc3[nH]2)C1)[C@@H]1CCc2ccccc2O1 .
Reply | 96

Ask | Tell me inhibition at 2 µM reported for O=C(NC1CCCC(c2nc3ccccc3[nH]2)C1)c1ccc2[nH]c(=O)[nH]c(=O)c2c1 (stereo not shown)
Reply | 73

Ask | Specify reported inhibition at 2 µM for the molecule shown: O=C(N[C@H]1CCC[C@@H](c2nc3ccc(Cl)cc3[nH]2)C1)c1ccc2c(c1)OCCO2 [Example 179, HCl]
Reply | 106

Ask | Item CN1C(=O)COc2ccc(C(=O)N[C@@H]3CCC[C@H](c4nc5cc(C(F)(F)F)ccc5[nH]4)C3)cc21 [Example 280, HCl] : provide inhibition at 2 µM
Reply | 112

(1) COc1ccc(NC(=O)N[C@@H]2CCC[C@H](c3nc4ccccc4[nH]3)C2)cc1
(2) O=C(N[C@H]1CCC[C@@H](c2nc3cc(Br)ccc3[nH]2)C1)c1ccc2c(c1)OCCO2 [Example 150, HCl]
Ask | Which value of inhibition at 2 µM is greater, the one for 1 or the one for 2 ? Kindly give the label for the entry you pick.
Reply | 1
